The reported numbers originate from ChEMBL document CHEMBL1806438.

Listing of recorded Activity by entry.
- Test system: Radical scavenging activity
- test: Antioxidant activity assessed as DPPH radical scavenging activity at 50 uM after 20 mins
- Type: functional
Numeric answer only, unit % assumed.

Consider the worked cases shown below.
> print(dat)
                                   molecule  property.measured  result
1  CCOC(=O)C(=O)N(Cc1cccc(F)c1)c1ccc2c(c1)N(C)CC(C)(COc1ccc(C(=N)N)cc1)O2 (stereo not drawn)           Activity      11
2  CCOC(=O)C(=O)N(Cc1ccc(F)c(F)c1)c1ccc2c(c1)N(C)CC(C)(COc1ccc(C(=N)N)cc1)O2 (stereo not drawn)           Activity      23
3  CCOC(=O)CN(Cc1cccc(F)c1)c1ccc2c(c1)OC(C)(COc1ccc(C(=N)N)cc1)CN2C (stereo not drawn)           Activity      48
4  CCOC(=O)CN(Cc1ccc(F)c(F)c1)c1ccc2c(c1)N(C)CC(C)(COc1ccc(C(=N)N)cc1)O2 (stereo not drawn)           Activity      11
5  CCOC(=O)CN(Cc1ccc(F)cc1)c1ccc2c(c1)OC(C)(COc1ccc(C(=N)N)cc1)CN2C (stereo not drawn)           Activity      62

The reported Activity of the molecule CCOC(=O)CN(Cc1cc(F)cc(F)c1)c1ccc2c(c1)N(C)CC(C)(COc1ccc(C(=N)N)cc1)O2 (stereo not drawn) was 8

The reported Activity of the molecule CCOC(=O)CN(Cc1cccc(F)c1)c1ccc2c(c1)N(C)CC(C)(COc1ccc(C(=N)N)cc1)O2 (stereo not drawn) was 11

The reported Activity of the molecule CCOC(=O)C(=O)N(Cc1cc(F)cc(F)c1)c1ccc2c(c1)N(C)CC(C)(COc1ccc(C(=N)N)cc1)O2 (stereo not drawn) was 23

---

- test: Inhibition of soybean lipoxygenase by UV absorbance based assay
- Design: species or system Glycine max
Listing of recorded pIC50 by entry.
The quantity pIC50 is defined as the negative base-10 logarithm of the molar concentration.

> print(dat)
                                   molecule  property.measured  result
1  CCOC(=O)C(=O)N(Cc1cc(F)cc(F)c1)c1ccc2c(c1)N(C)CC(C)(COc1ccc(C(=N)N)cc1)O2 (stereo not drawn)              pIC50    4.00
2  O=C(O)/C=C/c1ccc(O)c(O)c1 [CAFFEIC ACID]              pIC50    3.22

The reported pIC50 of the molecule CCOC(=O)CN(Cc1ccc(F)cc1)c1ccc2c(c1)N(C)CC(C)(COc1ccc(C(=N)N)cc1)O2 (stereo not drawn) was 4.14

---

Listing of recorded inhibition by entry.
- System: Glycine max
- test: Inhibition of soybean lipoxygenase by UV absorbance based assay

Consider the worked cases shown below.
> print(dat)
                                   compound  result
1  CCOC(=O)CN(Cc1cccc(F)c1)c1ccc2c(c1)OC(C)(COc1ccc(C(=N)N)cc1)CN2C (stereo not given)    > 0%
2  CCOC(=O)CN(Cc1cc(F)cc(F)c1)c1ccc2c(c1)N(C)CC(C)(COc1ccc(C(=N)N)cc1)O2 (stereo not given)   41.7%

The reported inhibition of the compound CCOC(=O)C(=O)N(Cc1ccc(F)cc1)c1ccc2c(c1)N(C)CC(C)(COc1ccc(C(=N)N)cc1)O2 (stereo not given) was > 0%

The reported inhibition of the compound CCOC(=O)CN(Cc1cccc(F)c1)c1ccc2c(c1)N(C)CC(C)(COc1ccc(C(=N)N)cc1)O2 (stereo not given) was 9.7%

The reported inhibition of the compound CCOC(=O)CN(Cc1ccc(F)cc1)c1ccc2c(c1)OC(C)(COc1ccc(C(=N)N)cc1)CN2C (stereo not given) was > 0%

The reported inhibition of the compound CCOC(=O)CN(Cc1ccc(F)c(F)c1)c1ccc2c(c1)OC(C)(COc1ccc(C(=N)N)cc1)CN2C (stereo not given) was > 0%

The reported inhibition of the compound CCOC(=O)C(=O)N(Cc1ccc(F)c(F)c1)c1ccc2c(c1)N(C)CC(C)(COc1ccc(C(=N)N)cc1)O2 (stereo not given) was > 0%

The reported inhibition of the compound CCOC(=O)C(=O)N(Cc1cccc(F)c1)c1ccc2c(c1)N(C)CC(C)(COc1ccc(C(=N)N)cc1)O2 (stereo not given) was > 0%

The reported inhibition of the compound CCOC(=O)CN(Cc1ccc(F)c(F)c1)c1ccc2c(c1)N(C)CC(C)(COc1ccc(C(=N)N)cc1)O2 (stereo not given) was > 0%

The reported inhibition of the compound CCOC(=O)CN(Cc1cc(F)cc(F)c1)c1ccc2c(c1)OC(C)(COc1ccc(C(=N)N)cc1)CN2C (stereo not given) was > 0%

---

Listing of recorded Activity by entry.
- Tested on: Radical scavenging activity
- test: Antioxidant activity assessed as DPPH radical scavenging activity at 50 uM after 20 mins
- Assay type: functional
Numeric answer only, unit % assumed.

> print(dat)
                                   molecule  property.measured  measurement.units  result
1  CCOC(=O)CN(Cc1ccc(F)cc1)c1ccc2c(c1)N(C)CC(C)(COc1ccc(C(=N)N)cc1)O2 (stereo not given)           Activity                  %      11
2  CCOC(=O)CN(Cc1ccc(F)c(F)c1)c1ccc2c(c1)OC(C)(COc1ccc(C(=N)N)cc1)CN2C (stereo not given)           Activity                  %      70
3  CC(Cc1ccc(O)c(O)c1)C(C)Cc1ccc(O)c(O)c1 (stereo not given)           Activity                  %      68
4  CCOC(=O)C(=O)N(Cc1ccc(F)cc1)c1ccc2c(c1)N(C)CC(C)(COc1ccc(C(=N)N)cc1)O2 (stereo not given)           Activity                  %      10

We next turn to a different molecule, shown below.
Observed Activity, Radical scavenging activity, CCOC(=O)CN(Cc1cc(F)cc(F)c1)c1ccc2c(c1)OC(C)(COc1ccc(C(=N)N)cc1)CN2C (stereo not given) : 54

---

As an illustration, consider measured Ki for compounds on UniProt P00734.

Consider the worked cases shown below.
> print(dat)
                                   compound  experimental.system  property.measured  result
1  CCOC(=O)CN(Cc1ccc(F)c(F)c1)c1ccc2c(c1)N(C)CC(C)(COc1ccc(C(=N)N)cc1)O2 (centres undefined)       UniProt P00734                 Ki  660 nM
2  CCOC(=O)CN(Cc1cccc(F)c1)c1ccc2c(c1)OC(C)(COc1ccc(C(=N)N)cc1)CN2C (centres undefined)       UniProt P00734                 Ki  350 nM
3  CCOC(=O)CN(Cc1ccc(F)c(F)c1)c1ccc2c(c1)OC(C)(COc1ccc(C(=N)N)cc1)CN2C (centres undefined)       UniProt P00734                 Ki  430 nM

The reported Ki of the compound CCOC(=O)CN(Cc1cccc(F)c1)c1ccc2c(c1)N(C)CC(C)(COc1ccc(C(=N)N)cc1)O2 (centres undefined) was 900 nM
